System: K12877-001-R-J1-PDC complex spheroid viability
TEST: Anticancer human tumor K12877-001-R-J1-PDC patient-derived lung adenocarcinoma cell line growth inhibition [RAS]
STATED CONDITIONS: curve of first compound; second compound 0.000949 µM
OBSERVED PROPERTY: pIC50
Numbers only, as −log10 of the molar value.

Name the recorded pIC50 for CCN1CCN(Cc2ccc(Nc3ncc(F)c(-c4cc(F)c5nc(C)n(C(C)C)c5c4)n3)nc2)CC1 + CCn1c(-c2cccnc2C(C)OC)c2c3cc(ccc31)N1CCOC(CC(NC(=O)C(C(C)C)N(C)C(=O)C3(F)CCN(C(=O)C#CC(C)(C)N(C)C)CC3)C(=O)N3CCCC(N3)C(=O)OCC(C)(C)C2)C1 .
6.54

====

I'd be grateful if you could share measured viability, T/C for these entries.
Tested on: K12877-001-R-J1-PDC complex spheroid viability
TEST: Anticancer human tumor K12877-001-R-J1-PDC cell line growth inhibition [RAS];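 note: spheroids exposed to agents for one week before readout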;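 for viability, T/C: tumour cells co-cultured with HUVEC and mesenchymal stem cells in spheroids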
STATED CONDITIONS: second compound 0.1 µM; first compound 0.01 µM; stronger effect = lower value

Provide the reported viability, T/C of each entry below, same order.
1. O=C(c1ccc(F)c(F)c1Nc1ccc(I)cc1F)N1CC(O)([C@@H]2CCCCN2)C1 + C=CC(=O)N1CCN(c2nc(OCC3CCCN3C)nc3c(F)c(-c4nc(N)cc(C)c4C(F)(F)F)c(Cl)cc23)C(C)C1
2. C=CC(=O)Nc1cc(Nc2nccc(-c3cn(C)c4ccccc34)n2)c(OC)cc1N(C)CCN(C)C + C=CC(=O)N1CCN(c2nc(OCC3CCCN3C)nc3c(F)c(-c4nc(N)cc(C)c4C(F)(F)F)c(Cl)cc23)C(C)C1

1. 89.3%
2. 88.1%

====

Test system: K12877-001-R-J1-PDC complex spheroid viability
TEST: Anticancer human tumor K12877-001-R-J1-PDC cell line growth inhibition [RAS];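 note: spheroids exposed to agents for one week before readout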
STATED CONDITIONS: curve of first compound; second compound 0.0949 µM
Excerpt: RAS pathway inhibitors in Combinations in Complex Spheroids A high-throughput screen of multi-cell type tumor spheroids was designed to identify active combinations of RAS pathway inhibitors and targeted small molecules. Complex spheroids include a stromal component modeled by human endothelial cells (HUVEC) and fibroblasts modeled by human mesenchymal stem cells (MSCs). […] Compounds. […] If the clinical Cmax for an agent had not been determined, the highest concentration tested was 10 microM. […]
OBSERVED PROPERTY: IC50 (µM)
Answers are plain numbers, in µM.

INSERT INTO measurements (compound, observed_property, meas_value) VALUES
  ('CCC(CC)c1cc(NC2CCC(N)C2)n2nccc2n1 (centres undefined) + CCn1c(-c2cc(N3CCN(C)CC3)cnc2C(C)OC)c2c3cc(ccc31)-c1csc(n1)CC(NC(=O)C1CC1C)C(=O)N1CCCC(N1)C(=O)OCC(C)(C)C2', 'IC50', 1.27);

Please go through the list and note IC50 for each compound.
1. CC(C)NCC(C(=O)N1CCN(c2ncnc3c2C(C)CC3O)CC1)c1ccc(Cl)cc1 (centres undefined) + CCn1c(-c2cc(N3CCN(C)CC3)cnc2C(C)OC)c2c3cc(ccc31)-c1csc(n1)CC(NC(=O)C1CC1C)C(=O)N1CCCC(N1)C(=O)OCC(C)(C)C2
2. Nc1ccn(C2OC(CO)C(O)C2(F)F)c(=O)n1 (centres undefined) + CCn1c(-c2cc(N3CCN(C)CC3)cnc2C(C)OC)c2c3cc(ccc31)-c1csc(n1)CC(NC(=O)C1CC1C)C(=O)N1CCCC(N1)C(=O)OCC(C)(C)C2

0.717
0.0168

====

System: K12877-001-R-J1-PDC complex spheroid viability
TEST: Anticancer human tumor K12877-001-R-J1-PDC cell line growth inhibition [RAS];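 note: spheroids exposed to agents for one week before readout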;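 for viability, T/C: tumour cells co-cultured with HUVEC and mesenchymal stem cells in spheroids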
STATED CONDITIONS: second compound 3.16 µM; first compound 1 µM; stronger effect = lower value
Please provide measured viability, T/C for the entries that follow.
Give bare numbers, in %.

Recorded results for 5 compounds are shown here.
INSERT INTO assay_data (compound, meas_value) VALUES
  ('CC(Nc1ccc2c(c1)OCCn1cc(N3C(=O)OCC3C(F)F)nc1-2)C(N)=O (stereo not drawn) + C#Cc1c(F)ccc2cc(O)cc(-c3ncc4c(N5CC6CCC(C5)N6)nc(OCC56CCCN5CC(F)C6)nc4c3F)c12', 65.1),
  ('CC1(O)CCCC1n1c(=O)c(C(F)F)cc2cnc(NC3CCN(S(C)(=O)=O)CC3)nc21 (stereo not drawn) + C#Cc1c(F)ccc2cc(O)cc(-c3ncc4c(N5CC6CCC(C5)N6)nc(OCC56CCCN5CC(F)C6)nc4c3F)c12', 80),
  ('O=C(c1ccc(F)c(F)c1Nc1ccc(I)cc1F)N1CC(O)([C@@H]2CCCCN2)C1 + C#Cc1c(F)ccc2cc(O)cc(-c3ncc4c(N5CC6CCC(C5)N6)nc(OCC56CCCN5CC(F)C6)nc4c3F)c12', 62.9),
  ('CC(C)NCC(C(=O)N1CCN(c2ncnc3c2C(C)CC3O)CC1)c1ccc(Cl)cc1 (stereo not drawn) + C#Cc1c(F)ccc2cc(O)cc(-c3ncc4c(N5CC6CCC(C5)N6)nc(OCC56CCCN5CC(F)C6)nc4c3F)c12', 91.1),
  ('C=CC(=O)N1CCN(c2nc(OCC3CCCN3C)nc3c(F)c(-c4nc(N)cc(C)c4C(F)(F)F)c(Cl)cc23)C(C)C1 (stereo not drawn) + C#Cc1c(F)ccc2cc(O)cc(-c3ncc4c(N5CC6CCC(C5)N6)nc(OCC56CCCN5CC(F)C6)nc4c3F)c12', 73.9);

Could I get viability, T/C for every one of these entries?
1. C[C@@H](NC(=O)c1ncnc(N)c1Cl)c1ncc(C(=O)Nc2cc(C(F)(F)F)c(Cl)cn2)s1 + C#Cc1c(F)ccc2cc(O)cc(-c3ncc4c(N5CC6CCC(C5)N6)nc(OCC56CCCN5CC(F)C6)nc4c3F)c12
2. CCN1CCN(Cc2ccc(Nc3ncc(F)c(-c4cc(F)c5nc(C)n(C(C)C)c5c4)n3)nc2)CC1 + C#Cc1c(F)ccc2cc(O)cc(-c3ncc4c(N5CC6CCC(C5)N6)nc(OCC56CCCN5CC(F)C6)nc4c3F)c12

1: 106; 2: 83.9

Record viability, T/C per entry; entries follow.
1. NC1c2ccccc2OC12CCN(c1cnc3c(N4CCCc5ncccc54)n[nH]c3n1)CC2 (stereo not drawn) + C#Cc1c(F)ccc2cc(O)cc(-c3ncc4c(N5CC6CCC(C5)N6)nc(OCC56CCCN5CC(F)C6)nc4c3F)c12
2. Nc1ccn(C2OC(CO)C(O)C2(F)F)c(=O)n1 (stereo not drawn) + C#Cc1c(F)ccc2cc(O)cc(-c3ncc4c(N5CC6CCC(C5)N6)nc(OCC56CCCN5CC(F)C6)nc4c3F)c12
3. C=CC(=O)Nc1cc(Nc2nccc(-c3cn(C)c4ccccc34)n2)c(OC)cc1N(C)CCN(C)C + C#Cc1c(F)ccc2cc(O)cc(-c3ncc4c(N5CC6CCC(C5)N6)nc(OCC56CCCN5CC(F)C6)nc4c3F)c12
4. CC(=O)OC12COC1CC(O)C1(C)C(=O)C(O)C3=C(C)C(OC(=O)C(O)C(NC(=O)OC(C)(C)C)c4ccccc4)CC(O)(C(OC(=O)c4ccccc4)C21)C3(C)C (stereo not drawn) + C#Cc1c(F)ccc2cc(O)cc(-c3ncc4c(N5CC6CCC(C5)N6)nc(OCC56CCCN5CC(F)C6)nc4c3F)c12
5. Cc1nc(N2CCC3(CC2)COC(C)C3N)c(CO)nc1Sc1ccnc(N)c1Cl (stereo not drawn) + C#Cc1c(F)ccc2cc(O)cc(-c3ncc4c(N5CC6CCC(C5)N6)nc(OCC56CCCN5CC(F)C6)nc4c3F)c12
6. CCC(CC)c1cc(NC2CCC(N)C2)n2nccc2n1 (stereo not drawn) + C#Cc1c(F)ccc2cc(O)cc(-c3ncc4c(N5CC6CCC(C5)N6)nc(OCC56CCCN5CC(F)C6)nc4c3F)c12

[87.8, 5.82, 95, 4.99, 79.7, 81.1]

====

Tested on: K12877-001-R-J1-PDC complex spheroid viability
TEST: Anticancer human tumor K12877-001-R-J1-PDC cell line growth inhibition [RAS]; active means viability on the fitted dose curve at most 10% of control; inactive means the rest;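 note: spheroids exposed to agents for one week before readout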
STATED CONDITIONS: second compound 0.003 µM; first compound 0.3 µM
Pick one and only one: active, inactive

INSERT INTO results (molecule, assay_target, group) VALUES
  ('CCc1c2c(nc3ccc(O)cc13)-c1cc3c(c(=O)n1C2)COC(=O)[C@]3(O)CC + CCn1c(-c2cccnc2C(C)OC)c2c3cc(ccc31)N1CCOC(CC(NC(=O)C(C(C)C)N(C)C(=O)C3(F)CCN(C(=O)C#CC(C)(C)N(C)C)CC3)C(=O)N3CCCC(N3)C(=O)OCC(C)(C)C2)C1', 'K12877-001-R-J1-PDC complex spheroid viability', 'active'),
  ('CC1(C)CCC(Nc2ncc(C(F)(F)F)c(-c3c[nH]c4c(P(C)(C)=O)c(C#N)ccc34)n2)CN1 (centres undefined) + CCn1c(-c2cc(N3CCN(C)CC3)cnc2C(C)OC)c2c3cc(ccc31)-c1csc(n1)CC(NC(=O)C1CC1C)C(=O)N1CCCC(N1)C(=O)OCC(C)(C)C2', 'K12877-001-R-J1-PDC complex spheroid viability', 'inactive'),
  ('CC1(C)CCC(Nc2ncc(C(F)(F)F)c(-c3c[nH]c4c(P(C)(C)=O)c(C#N)ccc34)n2)CN1 (centres undefined) + CCn1c(-c2cccnc2C(C)OC)c2c3cc(ccc31)N1CCOC(CC(NC(=O)C(C(C)C)N(C)C(=O)C3(F)CCN(C(=O)C#CC(C)(C)N(C)C)CC3)C(=O)N3CCCC(N3)C(=O)OCC(C)(C)C2)C1', 'K12877-001-R-J1-PDC complex spheroid viability', 'inactive');

Here is another molecule to look at.
Can you look up the reported call for CCc1c2c(nc3ccc(O)cc13)-c1cc3c(c(=O)n1C2)COC(=O)[C@]3(O)CC + CCn1c(-c2cc(N3CCN(C)CC3)cnc2C(C)OC)c2c3cc(ccc31)-c1csc(n1)CC(NC(=O)C1CC1C)C(=O)N1CCCC(N1)C(=O)OCC(C)(C)C2 for me?
active

Data origin: PubChem BioAssay AID2060894
